Molecular target: T1, cynomolgus PVRIG on cells (cynomolgus, UniProt A0A2K5WVV8 41-322)
T1 construct: whole, on cells; also called cPVRIG; expi cPVRIG cells
T1 sequence: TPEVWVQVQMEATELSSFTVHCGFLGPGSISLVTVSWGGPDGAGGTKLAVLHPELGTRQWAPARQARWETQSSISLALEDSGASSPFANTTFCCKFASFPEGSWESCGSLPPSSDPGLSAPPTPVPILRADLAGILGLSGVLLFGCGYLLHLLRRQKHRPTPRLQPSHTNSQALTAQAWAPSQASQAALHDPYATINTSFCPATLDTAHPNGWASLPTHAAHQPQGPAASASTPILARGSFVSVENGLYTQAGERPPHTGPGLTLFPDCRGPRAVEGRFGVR
Assay: FACS, expi cPVRIG over expi parental cells, 3.3ug/ml
Could you mark each record 1 if its gMFIr Expi cyno OE/par falls strictly under 1, and -1 if it equals or exceeds it?

{"BINDER": "CHA.7.548 (antibody, V domains shown) VH: EVQLQQSGPELVKPGASVKISCKASGYTFTDYSMNWVKQSHGKSLEWIGDITPNNGSPNYNQKFKDKATLTVDKSSSTVYMELRSLTSEDSAVYYCASLFFDYWGHGTTLTVSS VL: DIVMTQSPSSLSVSAGEKVTMSCKSSQSLLNSGNQKNYLAWYQQKPGQPPKLLIYGASTRDSGVPDRFTGSGSGTDFTLTITSVQAEDLAVYYCQNDHTYPYTFGGGTKLEIK", "DISCRETE_LABEL": -1}
{"BINDER": "CHA.7.546 (antibody, V domains shown) VH: QIQLVQSGPELKKPGETVKISCKASGYTFTTYGMSWVKQAPGKGLKWMGWINTYSGVSTYADDFEGRFAFSLETSVSTAYLQINNLKNEDTATYFCARLGRGSTTGAGYLDVWGTGTTVTVSS VL: DIVLTQSPAIMSASPGEKVSMTCSASSSVSSWYLHWYQQKSGASPKLWIYGTSNLASGVPARFSGSGSGTSYSLTISSVEAEDAATYYCQQYHSDPYTFGSGTKLEIK", "DISCRETE_LABEL": 1}
{"BINDER": "CHA.7.522 (antibody, V domains shown) VH: QVQLQQPGSELVRPGTSVKLSCKASGYTFTSYWVHWVRQRHGQGLEWIGNVYPGSGSTNYDEKFKSKGTLTVDTSSSTAYMHLSSLTSEDSAVYYCTRGVLRFPLDYWGQGTTLTVSS VL: DIVMTQAAPSVPVTPGESVSISCRSSKSLLHSNGNTYLYWFLQRPGQSPHLLIYRMSNLASGVPDRFSGSGSGTAFTLRISRVEAEDVGVYYCMQHLEYPLTFGAGTKLELK", "DISCRETE_LABEL": -1}
{"BINDER": "CHA.7.514 (antibody, V domains shown) VH: EVQLRQSGADLVKPGASVKLSCTASGFNIKDTYIDWVKQRPEQGLDWIGRIDPANGNTKYDPKFQGKATIITDTSSNTAYLQLSNLTSEDTAVYYCARYGSYPYFDYWGRGTTLAVSS VL: SIVMTQTPKFLLISAGDRVTITCKASQSVRNDVAWYQQKPGQSPKLLMYYASNRYTGVPDRFTGSGYGTDFTFTISTVQAEDLAVYFCQQDYSSPPTFGGGTKLEIK", "DISCRETE_LABEL": -1}
